# tgt: nitrogen monoxide synthase (NO synthase) (Rattus norvegicus, UniProt P29476)
# Construct: the supernatant was then decanted off and frozen in portions; from tissue; host or cells: rat cerebellum (homogenate, 20,000 g supernatant)
# method-description: HTS-NOS assay (nitrogen monoxide synthase assay)
# Format: biochemical
# condition-label: compound at 10 μM; enzyme preparation from rat cerebella; [3H]-arginine substrate

| compound | inhibition at 10 µM (%) |
| --- | --- |
| Cc1ccnc(NC2CC(C)(c3ccc(C)cc3C)OC2=O)c1 (stereo not drawn) | 45 |
| CCOC(=O)c1c[nH]nc1NC1CC(C)(c2ccc(I)cc2)OC1=O (stereo not drawn) | 44 |
| COc1ccc(C2(C)CC(Nc3cc(C)ccn3)C(=O)O2)cc1 (stereo not drawn) | 48 |
| CC1(c2ccc3c(c2)CCCC3)CC(Nc2ncc(Br)cc2[N+](=O)[O-])C(=O)O1 (stereo not drawn) | 53 |
| COc1cccc(C2(C)CC(Nc3cc(C)cc(C)n3)C(=O)O2)c1 (stereo not drawn) | 40 |
| Cc1cc(C)nc(NC2CC(C)(c3ccc(C(C)C)cc3)OC2=O)c1 (stereo not drawn) | 68 |
| CC1(c2ccc(Oc3ccccc3)cc2)CC(Nc2ncccc2OCc2ccccc2)C(=O)O1 (stereo not drawn) | 40 |
| CC(C)C1(c2ccccc2)CC(Nc2ncc(Br)cc2[N+](=O)[O-])C(=O)O1 (stereo not drawn) | 41 |
| COc1ccc(C2(C)CC(Nc3cc(C)cc(C)n3)C(=O)O2)cc1OC (stereo not drawn) | 51 |
| COc1ccc(OC)c(C2(C)CC(Nc3n[nH]cc3C#N)C(=O)O2)c1 (stereo not drawn) | 42 |
| COc1ccc(OC)c(C2(C)CC(Nc3ccccn3)C(=O)O2)c1 (stereo not drawn) | 52 |
| CCCc1cccc(NC2CC(C)(c3cccc(Cl)c3)OC2=O)n1 (stereo not drawn) | 61 |
| COc1ccc(OC)c(C2(C)CC(Nc3n[nH]c(SC)c3C#N)C(=O)O2)c1 (stereo not drawn) | 42 |
| CC1(c2ccc(C#N)cc2)CC(Nc2ncc(Br)cn2)C(=O)O1 (stereo not drawn) | 43 |
| Cc1ccnc(NC2CC(C)(c3ccc(Br)cc3)OC2=O)c1[N+](=O)[O-] (stereo not drawn) | 43 |
| Cc1ccnc(NC2CC(C)(c3ccc4c(c3)CCCC4)OC2=O)c1 (stereo not drawn) | 55 |
| CC1(c2ccc(C#N)cc2)CC(Nc2ncc(Br)cc2[N+](=O)[O-])C(=O)O1 (stereo not drawn) | 45 |
| Cc1cc(C)nc(NC2CC(C)(c3cc4ccccc4o3)OC2=O)c1 (stereo not drawn) | 40 |
| CC(C)C1(c2ccccc2)CC(Nc2ncccn2)C(=O)O1 (stereo not drawn) | 58 |
| Cc1nc(NC2CC(C)(c3ccc(Oc4ccccc4)cc3)OC2=O)ccc1Br (stereo not drawn) | 43 |
| CC1(c2ccc(Br)cc2)CC(Nc2ccc(Br)cn2)C(=O)O1 (stereo not drawn) | 54 |
| CCCc1cccc(NC2CC(C)(c3ccc(C(C)(C)C)cc3)OC2=O)n1 (stereo not drawn) | 45 |
| Cc1ccnc(NC2CC(C)(c3cccc(Cl)c3)OC2=O)c1[N+](=O)[O-] (stereo not drawn) | 50 |
| Cc1ccnc(NC2CC(C)(c3cc4ccccc4o3)OC2=O)c1 (stereo not drawn) | 44 |
| CCCc1cccc(NC2CC(C)(c3cc4ccccc4s3)OC2=O)n1 (stereo not drawn) | 43 |
| CCCc1nc(NC2CC(C)(c3cc(OC)cc(OC)c3)OC2=O)ncc1C(=O)OCC (stereo not drawn) | 40 |
| Cc1cccnc1NC1CC(C)(c2ccc(Br)cc2)OC1=O (stereo not drawn) | 45 |
| Cc1ccnc(NC2CC(C)(c3ccc(Br)cc3)OC2=O)c1 (stereo not drawn) | 59 |
| Cc1cccc(C2(C)CC(Nc3ccc4ccccc4n3)C(=O)O2)c1 (stereo not drawn) | 51 |
| Cc1nc(NC2CC(C)(c3ccc(I)cc3)OC2=O)ccc1Br (stereo not drawn) | 70 |
